Protocol Details: in vivo
Parameters: species or system male CD-1 mice
Test Context: male, CD-1, mouse, po, 1 mg/kg
Readout Label: Tmax (min)
One number for each entry, in min.

• Cc1ccc(N(C)c2nc(N)nc3[nH]c4cccc(Cl)c4c23)cc1 [AGN5] = 30

For the next question, use this compound.
# input compound: CN(c1ccccc1)c1nc(N)nc2[nH]c3cccc(Cl)c3c12 [AGN11] ; wanted: its Tmax
25

====

Protocol Details: in vivo
Design: species or system male CD-1 mice
Test Context: male, CD-1, mouse, iv, 1 mg/kg
Kindly supply the reported C0 values for the records listed here.
Give bare numbers, in ng/mL.

* CN(c1ccccc1)c1nc(N)nc2[nH]c3cccc(Cl)c3c12 [AGN11] | 529

For the next question, use this compound.
# input compound: Cc1ccc(N(C)c2nc(N)nc3[nH]c4cccc(Cl)c4c23)cc1 [AGN5] ; wanted: its C0
811

====

System Name: CSNK1A1 (CK1 alpha 1) (Homo sapiens)
Sequence (P48729 whole entry): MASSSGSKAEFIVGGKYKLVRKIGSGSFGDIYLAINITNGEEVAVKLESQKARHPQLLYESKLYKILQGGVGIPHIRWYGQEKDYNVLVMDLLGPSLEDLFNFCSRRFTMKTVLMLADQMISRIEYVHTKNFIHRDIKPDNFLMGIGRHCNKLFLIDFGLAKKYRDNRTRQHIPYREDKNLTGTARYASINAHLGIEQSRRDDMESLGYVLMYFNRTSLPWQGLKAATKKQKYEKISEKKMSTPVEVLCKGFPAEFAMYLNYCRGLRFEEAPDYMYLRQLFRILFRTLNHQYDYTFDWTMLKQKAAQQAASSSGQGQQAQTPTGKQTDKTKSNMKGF
Protocol Details: Kinase inhibition, CSNK1A1
Format: biochemical
Test Context: representative value, ATP bin 5 μM; read-out: IC50 (nM) of Std inhibitor, CSNK1A1 (CK1 alpha 1)
Readout Label: IC50 (nM)
Give bare numbers, in nM.

Any idea what IC50 came out for Brc1c(Br)c(Br)c2n[nH]nc2c1Br [TBB, reference compound] on CSNK1A1 (CK1 alpha 1) (Homo sapiens)?
12600

====

# collection of IC50 values tested on PLK2 (Homo sapiens, UniProt Q9NYY3)
# Sequence (Q9NYY3 whole entry): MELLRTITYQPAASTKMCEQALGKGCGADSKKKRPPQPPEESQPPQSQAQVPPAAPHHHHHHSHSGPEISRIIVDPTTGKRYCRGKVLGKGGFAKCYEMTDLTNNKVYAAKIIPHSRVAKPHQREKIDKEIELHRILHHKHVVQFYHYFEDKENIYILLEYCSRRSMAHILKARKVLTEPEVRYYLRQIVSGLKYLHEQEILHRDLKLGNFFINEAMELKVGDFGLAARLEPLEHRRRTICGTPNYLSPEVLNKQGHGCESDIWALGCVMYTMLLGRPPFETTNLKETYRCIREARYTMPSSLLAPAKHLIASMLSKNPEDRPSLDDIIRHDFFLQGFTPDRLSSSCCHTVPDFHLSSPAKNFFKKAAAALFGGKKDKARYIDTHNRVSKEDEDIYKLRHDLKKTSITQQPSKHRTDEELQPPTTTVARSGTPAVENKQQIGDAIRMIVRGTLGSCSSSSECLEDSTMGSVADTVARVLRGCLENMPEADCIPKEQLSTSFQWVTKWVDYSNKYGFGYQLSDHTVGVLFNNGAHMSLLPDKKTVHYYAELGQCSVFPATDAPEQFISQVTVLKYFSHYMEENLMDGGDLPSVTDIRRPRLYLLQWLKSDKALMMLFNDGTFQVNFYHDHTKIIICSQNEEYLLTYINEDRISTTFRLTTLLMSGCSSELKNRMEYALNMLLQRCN

• Cc1ccc(N(C)c2nc(N)nc3[nH]c4cccc(Cl)c4c23)cc1 = 0.0167 µM

# input compound: CN(c1ccccc1)c1nc(N)nc2[nH]c3cccc(Cl)c3c12 ; wanted: its IC50
> 0.37 µM

====

Protocol Details: Solubility
Type: physicochemical
Test Context: simulated gastric fluid; pH 2.0
Kindly supply the reported solubility values for the records listed here.
Write the quantity with the unit trailing the number.

• Cc1ccc(N(C)c2nc(N)nc3[nH]c4cccc(Cl)c4c23)cc1 [AGN5] = 1.75 µM

For the next question, use this compound.
# input compound: CN(c1ccccc1)c1nc(N)nc2[nH]c3cccc(Cl)c3c12 [AGN11] ; wanted: its solubility
0.71 µM

====

System Name: ABL1 (Homo sapiens)
Sequence (P00519 whole entry): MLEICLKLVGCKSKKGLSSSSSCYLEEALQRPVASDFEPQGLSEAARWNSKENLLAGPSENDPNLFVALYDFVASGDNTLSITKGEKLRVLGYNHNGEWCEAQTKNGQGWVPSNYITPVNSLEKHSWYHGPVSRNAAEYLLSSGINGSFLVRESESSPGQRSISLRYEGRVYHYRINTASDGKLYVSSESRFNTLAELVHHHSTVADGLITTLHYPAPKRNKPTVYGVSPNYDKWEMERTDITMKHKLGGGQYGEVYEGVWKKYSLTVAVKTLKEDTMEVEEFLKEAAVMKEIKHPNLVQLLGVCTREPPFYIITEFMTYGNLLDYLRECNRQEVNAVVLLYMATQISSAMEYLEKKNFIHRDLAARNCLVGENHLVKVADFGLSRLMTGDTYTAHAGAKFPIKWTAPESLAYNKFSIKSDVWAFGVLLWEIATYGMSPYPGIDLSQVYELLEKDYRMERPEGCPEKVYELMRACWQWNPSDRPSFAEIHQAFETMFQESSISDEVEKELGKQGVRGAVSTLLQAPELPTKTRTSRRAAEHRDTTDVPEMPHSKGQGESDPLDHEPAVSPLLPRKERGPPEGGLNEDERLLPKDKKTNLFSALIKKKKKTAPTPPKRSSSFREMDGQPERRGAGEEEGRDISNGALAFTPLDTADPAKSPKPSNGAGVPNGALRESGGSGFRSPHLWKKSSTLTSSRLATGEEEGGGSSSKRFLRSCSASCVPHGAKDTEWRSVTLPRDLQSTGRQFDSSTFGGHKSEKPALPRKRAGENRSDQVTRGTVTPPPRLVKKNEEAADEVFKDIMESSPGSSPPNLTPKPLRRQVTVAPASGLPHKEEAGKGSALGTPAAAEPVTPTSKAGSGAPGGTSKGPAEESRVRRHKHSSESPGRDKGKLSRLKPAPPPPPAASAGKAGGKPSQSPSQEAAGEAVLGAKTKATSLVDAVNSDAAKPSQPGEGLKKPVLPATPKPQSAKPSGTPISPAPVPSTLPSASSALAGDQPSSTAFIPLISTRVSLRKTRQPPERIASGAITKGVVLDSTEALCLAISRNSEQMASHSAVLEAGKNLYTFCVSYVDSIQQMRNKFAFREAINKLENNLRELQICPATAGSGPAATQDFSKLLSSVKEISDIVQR
Protocol Details: Kinase inhibition, ABL1
Format: biochemical
Test Context: ATP Km app 12 μM
Source text: Total inhibition of these kinases would be detrimental to neuronal viability.
Kindly supply the reported pIC50 values for the records listed here.
One number for each entry, as −log10 of the molar value.

* CN(c1ccccc1)c1nc(N)nc2[nH]c3cccc(Cl)c3c12 | 8.10

For the next question, use this compound.
Any idea what pIC50 came out for Cc1ccc(N(C)c2nc(N)nc3[nH]c4cccc(Cl)c4c23)cc1 on ABL1 (Homo sapiens)?
7.58

====

# collection of IC50 values tested on GRK6 (Homo sapiens, UniProt P43250)
# Sequence (P43250 whole entry): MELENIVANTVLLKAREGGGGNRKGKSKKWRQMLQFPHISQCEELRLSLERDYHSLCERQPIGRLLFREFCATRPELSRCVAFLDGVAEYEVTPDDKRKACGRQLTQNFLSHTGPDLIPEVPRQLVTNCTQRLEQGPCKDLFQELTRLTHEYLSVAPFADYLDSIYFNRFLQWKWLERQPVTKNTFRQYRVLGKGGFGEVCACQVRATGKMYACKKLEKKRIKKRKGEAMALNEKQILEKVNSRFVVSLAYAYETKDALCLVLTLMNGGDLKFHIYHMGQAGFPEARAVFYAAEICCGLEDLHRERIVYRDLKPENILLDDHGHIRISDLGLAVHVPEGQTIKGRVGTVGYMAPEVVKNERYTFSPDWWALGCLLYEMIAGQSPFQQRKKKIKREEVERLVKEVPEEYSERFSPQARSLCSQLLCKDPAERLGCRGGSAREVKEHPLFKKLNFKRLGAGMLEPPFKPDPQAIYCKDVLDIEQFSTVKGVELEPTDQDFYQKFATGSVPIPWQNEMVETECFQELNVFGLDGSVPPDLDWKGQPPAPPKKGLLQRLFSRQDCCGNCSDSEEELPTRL
Answers are plain numbers, in nM.

- Cc1ccc(N(C)c2nc(N)nc3[nH]c4cccc(Cl)c4c23)cc1: 64.3

# input compound: CN(c1ccccc1)c1nc(N)nc2[nH]c3cccc(Cl)c3c12 ; wanted: its IC50
614

====

Protocol Details: in vivo
Parameters: species or system male CD-1 mice
Test Context: male, CD-1, mouse, po, 1 mg/kg
Readout Label: half-life

* Cc1ccc(N(C)c2nc(N)nc3[nH]c4cccc(Cl)c4c23)cc1 | 46.8 min

For the next question, use this molecule.
# input molecule: CN(c1ccccc1)c1nc(N)nc2[nH]c3cccc(Cl)c3c12 ; wanted: its half-life
36 min

====

Protocol Details: in vivo
Design: species or system male CD-1 mice
Test Context: male, CD-1, mouse
Kindly supply the reported Kp uu at 2 h values for the records listed here.
One number for each entry.

* CN(c1ccccc1)c1nc(N)nc2[nH]c3cccc(Cl)c3c12 | 4.4

# input molecule: Cc1ccc(N(C)c2nc(N)nc3[nH]c4cccc(Cl)c4c23)cc1 ; wanted: its Kp uu at 2 h
6

====

Protocol Details: Metabolic Stability, Mouse
Assay type: in vitro ADME
Readout Label: CLint scaled (mL/min/kg)
Numbers only, in mL/min/kg.

- Cc1ccc(N(C)c2nc(N)nc3[nH]c4cccc(Cl)c4c23)cc1 [AGN5]: 602

For the next question, use this compound.
# input compound: CN(c1ccccc1)c1nc(N)nc2[nH]c3cccc(Cl)c3c12 [AGN11] ; wanted: its CLint scaled
602

====

Kindly supply the reported fraction unbound values for the records listed here.
Protocol Details: Brain Tissue Binding, Mouse
Type: in vitro ADME
Test Context: read-out: Brain Tissue Binding % Bound (converted)
Answers are plain numbers.

- CN(c1ccccc1)c1nc(N)nc2[nH]c3cccc(Cl)c3c12: 0.0008

# input compound: Cc1ccc(N(C)c2nc(N)nc3[nH]c4cccc(Cl)c4c23)cc1 ; wanted: its fraction unbound
0.0004

====

# collection of IC50 values tested on GRK5 (Homo sapiens, UniProt P34947)
# Sequence (P34947 whole entry): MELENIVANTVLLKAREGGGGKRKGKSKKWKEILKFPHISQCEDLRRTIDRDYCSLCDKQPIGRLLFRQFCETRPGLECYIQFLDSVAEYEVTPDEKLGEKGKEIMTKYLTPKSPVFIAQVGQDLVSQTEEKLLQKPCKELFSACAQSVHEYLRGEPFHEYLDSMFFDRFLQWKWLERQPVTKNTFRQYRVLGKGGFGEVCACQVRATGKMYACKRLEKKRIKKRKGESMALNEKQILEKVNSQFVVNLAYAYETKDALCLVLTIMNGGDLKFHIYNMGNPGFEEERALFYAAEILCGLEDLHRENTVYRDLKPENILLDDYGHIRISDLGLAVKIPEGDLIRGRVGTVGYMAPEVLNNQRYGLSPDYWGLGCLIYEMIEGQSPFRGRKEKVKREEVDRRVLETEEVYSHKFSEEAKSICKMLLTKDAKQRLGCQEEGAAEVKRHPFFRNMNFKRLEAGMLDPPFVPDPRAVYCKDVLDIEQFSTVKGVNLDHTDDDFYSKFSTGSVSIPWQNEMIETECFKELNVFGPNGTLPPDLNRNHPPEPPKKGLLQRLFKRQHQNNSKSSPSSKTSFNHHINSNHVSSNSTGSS

Quick one: give me IC50 for each item below, same order please.
1. CN(c1ccccc1)c1nc(N)nc2[nH]c3cccc(Cl)c3c12
2. Cc1ccc(N(C)c2nc(N)nc3[nH]c4cccc(Cl)c4c23)cc1

1. > 1.11 µM
2. > 0.37 µM

====

Protocol Details: Metabolic Stability, Human
Assay type: in vitro ADME
Test Context: read-out: Metabolic Stability T1/2
Readout Label: half-life (min)
Numbers only, in min.

• Cc1ccc(N(C)c2nc(N)nc3[nH]c4cccc(Cl)c4c23)cc1 = 38.9

For the next question, use this compound.
# input compound: CN(c1ccccc1)c1nc(N)nc2[nH]c3cccc(Cl)c3c12 ; wanted: its half-life
38.1
